All figures here come from patent US7390923B2.

target: androgen receptor (AR) (Rattus norvegicus, UniProt P15207); construct: Ventral prostates were obtained form rats castrated 24 h prior to sacrifice; from tissue; host or cells: rat ventral prostate cytosol (castrated rats, charcoal-treated); assay: AR binding assay, competition with [3H]-mibolerone binding in rat ventral prostate cytosol; settings: test compound 2.0 μM, 1 nM [3H]-mibolerone, overnight at 0° C.
Sequence (P15207 whole entry S389L): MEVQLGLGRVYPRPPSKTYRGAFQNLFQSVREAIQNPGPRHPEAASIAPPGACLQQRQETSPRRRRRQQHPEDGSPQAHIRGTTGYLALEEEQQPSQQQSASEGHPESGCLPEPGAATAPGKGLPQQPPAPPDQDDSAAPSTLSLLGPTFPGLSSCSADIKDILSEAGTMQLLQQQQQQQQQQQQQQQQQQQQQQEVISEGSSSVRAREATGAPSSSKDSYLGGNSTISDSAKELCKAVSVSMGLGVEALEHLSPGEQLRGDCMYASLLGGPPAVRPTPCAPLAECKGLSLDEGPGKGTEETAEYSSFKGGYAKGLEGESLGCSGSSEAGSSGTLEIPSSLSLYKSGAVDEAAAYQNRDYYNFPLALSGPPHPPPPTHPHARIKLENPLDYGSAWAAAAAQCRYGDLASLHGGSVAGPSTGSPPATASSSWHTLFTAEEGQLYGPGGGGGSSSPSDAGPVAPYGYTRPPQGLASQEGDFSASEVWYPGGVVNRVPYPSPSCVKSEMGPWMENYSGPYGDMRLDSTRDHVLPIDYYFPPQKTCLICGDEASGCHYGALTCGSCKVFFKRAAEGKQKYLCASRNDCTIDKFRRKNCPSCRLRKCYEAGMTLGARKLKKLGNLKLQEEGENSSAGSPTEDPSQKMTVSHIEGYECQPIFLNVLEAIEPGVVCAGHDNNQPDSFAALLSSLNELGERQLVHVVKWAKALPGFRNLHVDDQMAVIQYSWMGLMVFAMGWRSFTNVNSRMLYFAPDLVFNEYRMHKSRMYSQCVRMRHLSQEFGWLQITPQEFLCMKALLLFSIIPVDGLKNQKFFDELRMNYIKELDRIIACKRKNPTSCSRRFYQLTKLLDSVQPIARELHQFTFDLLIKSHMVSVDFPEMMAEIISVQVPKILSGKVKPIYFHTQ
Task for the reader: assign each of the following molecules its reported inhibition at 2 µM.
Give bare numbers, in %.

                                   molecule                           measured_target      property_label  readout_number
0  Cc1cc(NC(=O)C(C)(O)COc2ccc(C(F)(F)F)cc2)ccc1[N+](=O)[O-] (stereo not shown) [Example 15]  androgen receptor (AR) (Rattus norvegicus, UniProt P15207)  inhibition at 2 µM              77
1  Cc1cc(NC(=O)C(C)(O)COc2ccc(C(N)=O)cc2)ccc1[N+](=O)[O-] (stereo not shown) [Example 5]  androgen receptor (AR) (Rattus norvegicus, UniProt P15207)  inhibition at 2 µM              74
2  Cc1cc(NC(=O)C(C)(O)COc2ccc(NC(=O)C(F)(F)F)cc2)ccc1[N+](=O)[O-] (stereo not shown) [Example 13]  androgen receptor (AR) (Rattus norvegicus, UniProt P15207)  inhibition at 2 µM              90

Now take the following molecule into account.
Lookup result for COCc1ccc(OCC(C)(O)C(=O)Nc2ccc([N+](=O)[O-])c(C)c2)cc1 (stereo not shown) [Example 81] ; measured inhibition at 2 µM: 98

* * *

target: androgen receptor (AR) (Rattus norvegicus, UniProt P15207); construct: Ventral prostates were obtained form rats castrated 24 h prior to sacrifice; from tissue; host or cells: rat ventral prostate cytosol (castrated rats, charcoal-treated); test: AR binding assay, competition with [3H]-mibolerone binding in rat ventral prostate cytosol; conditions: test compound 2.0 μM, 1 nM [3H]-mibolerone, overnight at 0° C.
Please go through the items and note down their inhibition at 2 µM.
Answers are plain numbers, in %.

In [3]: df
Out[3]:
                                   compound  readout_number
0  Cc1cc(NC(=O)C(C)(O)COc2ccc(OCCCl)cc2)ccc1[N+](=O)[O-] (centres unmarked)              99
1  Cc1cc(NC(=O)C(C)(O)COc2ccccc2F)ccc1[N+](=O)[O-] (centres unmarked)              99
2  CC(=O)Nc1ccc(OC[C@](C)(O)C(=O)Nc2ccc([N+](=O)[O-])c(C)c2)cc1             115
3  Cc1cc(NC(=O)C(C)(O)COc2ccc(C#N)cc2)ccc1[N+](=O)[O-] (centres unmarked)              98
4  Cc1cc(NC(=O)C(C)(O)CNc2ccc(C#N)cc2)ccc1[N+](=O)[O-] (centres unmarked)              99
5  Cc1cc(NC(=O)C(C)(O)COc2ccc(C#N)c(Cl)c2)ccc1[N+](=O)[O-] (centres unmarked)              98
6  Cc1cc(NC(=O)C(C)(O)COc2ccc(F)c(Cl)c2)ccc1[N+](=O)[O-] (centres unmarked)             109
7  CC(=O)Nc1ccc(OCC(C)(O)C(=O)Nc2ccc([N+](=O)[O-])c(C)c2)cc1C(F)(F)F (centres unmarked)              75

Provide inhibition at 2 µM for all items below, preserving their order.
1. Cc1cc(NC(=O)C(C)(O)COc2ccc(CCO)cc2)ccc1[N+](=O)[O-] (centres unmarked)
2. Cc1cc(NC(=O)C(C)(O)COc2cccc(Cl)c2Cl)ccc1[N+](=O)[O-] (centres unmarked)
3. Cc1cc(NC(=O)C(C)(O)COc2ccc(F)c(F)c2)ccc1[N+](=O)[O-] (centres unmarked)
4. Cc1cc(NC(=O)C(C)(O)COc2ccccc2)ccc1[N+](=O)[O-] (centres unmarked)
5. Cc1cc(NC(=O)C(C)(O)COc2ccc(OC(F)(F)F)cc2)ccc1[N+](=O)[O-] (centres unmarked)
6. Cc1cc(NC(=O)[C@@](C)(O)COc2ccc(C#N)c(F)c2)ccc1[N+](=O)[O-]
7. Cc1cc(NC(=O)C(C)(O)COc2ccc(CCCCl)cc2)ccc1[N+](=O)[O-] (centres unmarked)
8. Cc1cc(NC(=O)C(C)(O)COc2ccc3c(c2)OCO3)ccc1[N+](=O)[O-] (centres unmarked)

1. 83
2. 83
3. 88
4. 95
5. 102
6. 99
7. 98
8. 92

Reported inhibition at 2 µM of CCOC(=O)Nc1ccc(OCC(C)(O)C(=O)Nc2ccc([N+](=O)[O-])c(C)c2)cc1F (centres unmarked) : 99
